tested on: SR leukemia; assay: NCI-60 one-dose screen, 48 h; details: 10 µM unless noted
Compounds without any hit were thinned out: in the full panel of roughly 83,000, 20% have a hit. Activity calls are given as the source filed them. How the source made its calls: active means growth percent below 10; inactive means the rest.
Labels: Yes (active), No (inactive)

- O=S(=O)(NCCCNc1nccc(-c2c(-c3ccc(F)c(O)c3)nc3sccn23)n1)c1ccc(F)cc1: Yes
- CC(C)C1C2=C(NCCN1C(=O)Cc1ccccc1)C(C)(C)N(Cc1ccccc1)C2=O (configuration not stated): No
- COc1ccc(/C=C/c2n[nH]c3ccc(N4CCOC4=O)cc23)cc1: Yes
- COc1ccccc1N1CCN(C(=O)c2ccc3nc(NC(=O)c4ccc(NCCc5ccccc5)c([N+](=O)[O-])c4)sc3c2)CC1: Yes
- CCCCc1ccc(Nc2nnc(SCC(=O)NC(=O)NCC)s2)cc1: Yes
- COc1ccc(-c2nc(SC(C)C)nc(NNC(N)=O)c2C#N)cc1: No
- COc1ccc(CC(C)=C(c2ccc(OCCN(C)C)cc2)c2ccc(OCCN(C)C)cc2)cc1: Yes
- COc1ccc(C(=O)c2cc3c(N)c(C(=O)Nc4ccc(Cl)cc4)sc3nc2C)cc1: No
- O=C1c2cccnc2C(=O)c2nc3cc(N4CCN(C5CC5)CC4)ccc3nc21: Yes
- O=C(Cc1ccc(/C=C/C(=O)c2ncc[nH]2)cc1)Nc1ccc(C(F)(F)F)cc1: Yes
- CN(Cc1ccccc1)c1nc(Cl)c(C2CC(c3ccc(Cl)cc3)=Cc3[nH][nH]c(=O)c32)s1 (configuration not stated): No
- CC(C)(O)C1CCCN1C(=O)c1ccccc1I (configuration not stated): No
- Clc1ccc(C2CC(c3cccc(Nc4ccncc4)c3)=NN2c2ccc(Cl)cc2)cc1 (configuration not stated): Yes
- CCCC1C(C(=O)OCC)=C(N)Oc2cc(O)ccc21 (configuration not stated): No
- COc1cccc(CCC(=O)c2cc3c(N)c(C(=O)Nc4ccccc4)sc3nc2C)c1: No
- CC(C)CCSc1nc(NNC(N)=O)c(C#N)c(-c2ccccc2)n1: No
- CN1CCN(CCCOc2ccc3ncnc(Nc4ccc(Oc5cccc(C(F)(F)F)c5)c(Cl)c4)c3c2)CC1: Yes
- COc1ccc(C(O)c2cc3c(N)c(C(=O)Nc4cccc(OC)c4)sc3nc2C)cc1 (configuration not stated): Yes
- COc1ccc(C(=O)c2cc(C)c(OC)c(C)c2)c(OC)c1O: No
- CCN(CC)CCCC(Nc1c2ccc(Cl)cc2nc2ccc(OC)cc12)c1ccc(Cl)cc1 (configuration not stated): Yes
- CCN1C(=O)N(CC)C2NC(SC)=NC21 (configuration not stated): No
- CCN(CC)CCOC(COc1cc(C)cc(C)c1)COc1cc(C)cc(C)c1: Yes
- COc1ccccc1-c1c(-c2ccc(Cl)cc2)c2cc3c(cc2[nH]c1=O)OCCO3: No
- Clc1nc(Nc2ccccc2)nc(Nc2ccccc2)n1: No
- CN1CCN(c2cnc(C(=O)Nc3cc(F)cc4cccnc34)cn2)CC1: No
- C=C(C)[C@@H]1CC[C@]2(C(=O)NCCCN(CCC#N)CCC#N)CC[C@]3(C)[C@H](CC[C@@H]4[C@@]5(C)CCC(=O)C(C)(C)[C@@H]5CC[C@]43C)[C@@H]12: No
- COc1cc(C(=O)c2cnc(-c3ccc4cc[nH]c4c3)[nH]2)cc(OC)c1OC: Yes
- FC(F)(F)Oc1cccc(-c2cc(NCCCCCCNc3cc(-c4cccc(OC(F)(F)F)c4)nc4ccc(N5CCCC5)cc34)c3cc(N4CCCC4)ccc3n2)c1: Yes
- COc1ccc(NS(=O)(=O)c2ccc(C)cc2)c([N+](=O)[O-])c1: No
- CN1CCN(c2cc(F)c(NC3=C(Cl)C(=O)c4ncccc4C3=O)c(F)c2)CC1: Yes
- N#CSCC1CC(O)(c2ccccc2)C(c2ccccc2)C(c2ccc(F)cc2)O1 (configuration not stated): Yes
- Cc1ccc(C(c2c(O)c3cc(Br)ccc3[nH]c2=O)c2c(O)c3cc(Br)ccc3[nH]c2=O)cc1: No
- C#Cc1cccc(NC(=O)Nc2cccc(N=C=S)c2)c1: No
- CC(C)CN(C(=O)c1ccc(Cl)cc1)c1c(N)n(CC(C)C)c(=O)[nH]c1=O: No
- CC[C@@]12C=CCN3CC[C@]4(c5cc(NC(=O)COc6cc(OCC(=O)Nc7cc8c(cc7OC)N(C)[C@H]7[C@@](O)(C(=O)OC)[C@H](OC(C)=O)[C@]9(CC)C=CCN%10CC[C@]87[C@@H]%109)cc7oc(-c8ccccc8)cc(=O)c67)c(OC)cc5N(C)[C@@H]4[C@](O)(C(=O)OC)[C@H]1OC(C)=O)[C@H]32: No
- O=C(O)CCCCCCCCCCCCCCC(=O)O: No
- Cc1ccc(C(=O)Nc2ccccc2C(=O)N/N=C(\c2ccccc2)c2ccccn2)cc1: No

----------
test system: EKVX NSCLC; assay: NCI-60 one-dose screen, 48 h; details: 10 µM unless noted
About 83,000 compounds went through this panel and 20% of them were active in at least one assay; those are over-represented in the sample as a whole. The source made the active and inactive calls. The calls were made as follows: active = growth percent below 10; inactive = the rest.
Labels: 1.0 = active, 0.0 = inactive

• CCOC(=O)Oc1c(OC)cc(C(=O)O[C@@H]2C[C@@H]3CN4CCc5c([nH]c6cc(OC)ccc56)[C@H]4C[C@@H]3[C@H](C(=O)OC)[C@H]2OC)cc1OC = 0.0
• C#CC(=O)Nc1cccc2c1cc(C)n2-c1nc2c(c(NCc3ccccc3)n1)CCCC2 = 1.0
• CCN(CC)S(=O)(=O)c1cccc([N+](=O)[O-])c1 = 0.0
• C=C(C)[C@@H]1CC[C@]2(C(=O)NCCCN(CCC#N)CCC#N)CC[C@]3(C)[C@H](CC[C@@H]4[C@@]5(C)CCC(=O)C(C)(C)[C@@H]5CC[C@]43C)[C@@H]12 = 0.0

----------
# growth annotations
test system: SK-MEL-5 melanoma; assay: NCI-60 one-dose screen, 48 h (100 = growth as untreated, 0 = no growth, -100 = all killed); settings: 10 µM unless noted
Compounds without any hit were thinned out: in the full panel of roughly 83,000, 20% have a hit.
PROPERTY_MEASURED: growth (%)

- O=C(N=Nc1c(O)[nH]c2ccc(F)cc12)c1cc2ccccc2[nH]1: 99.7
- CC(C)Cc1ccc(C(C)C(=O)NCc2c[nH]c3ccc(Cl)cc23)cc1 (stereo unspecified): 85.4
- Cc1nc2sc(C(=O)Nc3cccc(Br)c3)c(N)c2cc1C(=O)c1ccc(C(F)(F)F)cc1: 91
- COc1ccc(NC(=O)c2sc3nc(C)c(C(=O)CCc4cccc(OC)c4)cc3c2N)cc1: 61.9
- CCN(CC)CCOC(COc1cc(C)cc(C)c1)COc1cc(C)cc(C)c1: -88.5
- O=C1CCCN1c1cccc2cccnc12: 99.1

----------
system: HOP-92 NSCLC; assay: NCI-60 one-dose screen, 48 h; conditions: 10 µM unless noted
Compounds without any hit were thinned out: in the full panel of roughly 83,000, 20% have a hit. Active and inactive are the calls of the source. Rule for the calls: active = growth percent below 10; inactive = the rest.
Labels: active, inactive

* O=C1CCC(NC(=S)Nc2ccccc2)N1 (stereo unspecified) | inactive
* COc1ccc2c(Nc3ccc(NS(C)(=O)=O)cc3)c3ccccc3nc2c1 | active
* COc1ccccc1OCC(=O)N1CCCCCC1 | inactive
* Clc1nc(Nc2ccccc2)nc(Nc2ccccc2)n1 | inactive
* COc1ccc2c(c1)c(CC(=O)NCCOCCOCC(=O)Nc1ccc(OC)c(C(N)=O)c1O)c(C)n2C(=O)c1ccc(Cl)cc1 | inactive
* CCOC(=O)c1c(O)cc(-c2ccccc2)cc1-c1sc(N(C)Cc2ccccc2)nc1Cl | inactive

----------
system: K-562 leukemia; assay: NCI-60 one-dose screen, 48 h; details: 10 µM unless noted
Compounds without any hit were thinned out: in the full panel of roughly 83,000, 20% have a hit. Calls of active or inactive are those of the source. Rule for the calls: active = growth percent below 10; inactive = the rest.
Labels: yes (1) (active), no (0) (inactive)

- Cn1c(=O)c2[nH]c(CCCc3nc4c([nH]3)c(=O)n(C)c(=O)n4C)nc2n(C)c1=O: no (0)
- COc1ccc(C2CC(c3cccc(Nc4ccncc4)c3)=NN2c2ccc(Cl)cc2)cc1 (stereo not given): yes (1)
- O=S(=O)(NCCCNc1nccc(-c2c(-c3ccccc3)nc3occn23)n1)c1ccc(Cl)cc1: no (0)
- CO[C@@H]1[C@H](N(C)C(=O)c2ccccc2)C[C@@H]2O[C@]1(C)n1c3ccccc3c3c4c(c5c6ccccc6n2c5c31)C(=O)NC4=O: no (0)
- Cc1ccc(C2CC(c3cccc(Nc4ccncc4)c3)=NN2c2cc(Cl)cc(Cl)c2)cc1 (stereo not given): yes (1)
- COc1ccc(-c2nc3sccn3c2/C=C/C(=O)c2cc(OC)c(OC)c(OC)c2)cc1: no (0)
- COc1ccc(OC)c(/C=C/[C@H]2O[C@@H](C)[C@H](O)[C@@H]2O)c1: no (0)
- COc1ccc(CNC(=O)COc2ccc(/C=N/Nc3nc4ccccc4s3)cc2)cc1: no (0)
- CN(C)C(=O)c1cc2cnc(Nc3ccc(-c4csc5c(=O)cc(N6CCOCC6)oc45)cc3)nc2n1C1CCCC1: yes (1)
- COc1cc(/C=C/C(=O)c2ccc(Nc3ncnc4ccccc34)cc2)cc(OC)c1: yes (1)
- COc1ccc(C(O)c2cc3c(N)c(C(=O)Nc4cccc(OC)c4)sc3nc2C)cc1 (stereo not given): yes (1)
- Cc1nccc2c3ccc(OCc4cn(-c5ccc(Cl)cc5)nn4)cc3n(CCCc3ccccc3)c12: no (0)
- CC1(C)NCCC[C@]2(C)[C@H]3CC=C4[C@@H]5C[C@@](C)(CO)CC[C@]5(C)CC[C@@]4(C)[C@]3(C)CC[C@@H]12: yes (1)
- Brc1ccc(C2CC(c3cccc(Nc4ccncc4)c3)=NN2c2ccccc2)cc1 (stereo not given): yes (1)
- Cc1n[nH]c(C)c1-c1c(C)n[nH]c1C: yes (1)
- Cc1ccc(O)c(C(=O)O)c1: no (0)
- N#Cc1ccc(-c2ccc3c(c2)NC(=O)/C3=C\c2ccc[nH]2)cc1: no (0)
- C#Cc1cccc(NC(=O)Nc2ccc(NC(=O)CCl)cc2)c1: yes (1)
- CCN(CC)CCCCCCNc1cc(OC)cc2cccnc12: yes (1)
- COc1ccc(C2CC(c3cccc(Nc4ccncc4)c3)=NN2c2cc(Cl)cc(Cl)c2)cc1 (stereo not given): yes (1)
- CCN1C(=O)N(CC)C2C1NN=c1s/c(=C3\C(=O)Nc4ccccc43)c(=O)n12 (stereo not given): yes (1)
- CC(C)(C)OC(=O)N1CCN(c2ccc(N)cc2)C(=O)C1: no (0)
- O=S(=O)(c1ccc(N/N=C\c2ccccc2)cc1)c1ccc(N/N=C/c2ccccc2)cc1: no (0)
- COc1cccc2cc(-c3cc4ccccc4[nH]3)/c(=N/C(=S)Nc3ccc(C)cc3)oc12: no (0)
- COc1nc(N)nc(-n2c(-c3ccc(C)cc3)nc3ccccc32)c1NCc1ccc(C)cc1: no (0)
- CSc1nnc2c(=O)n(C)c(=O)n(C)c2n1: no (0)
- O=[N+]([O-])c1cccc(-c2nc(-c3ccc(Cl)cc3Cl)cn2-c2ccccc2)c1: no (0)
- CC(=O)c1c(C)[nH]c(-c2nc3ccc(N4CCN(C)CC4)cc3[nH]2)c1-c1ccccc1: no (0)
- Nc1c(C(=O)Nc2ccc(Cl)cc2)cc(-c2nc3ccccc3s2)c(=O)n1NS(=O)(=O)c1ccc(Cl)cc1: no (0)
- CN1CCN(C(=O)OCc2nc3c(N4CCOCC4)nc(-c4ccccc4)nc3n2C)CC1: yes (1)
- Nc1c(Cl)cc([N+](=O)[O-])cc1Br: no (0)
- O=C(NCCN1CCOCC1)OCc1nc2nc(Cl)nc(N3CCOCC3)c2[nH]1: yes (1)
- BrC(Br)(Br)c1cnc2ccccc2n1: yes (1)
- CCOc1cc(CNc2ccc(N3CCOCC3)c(C(=O)O)c2)ccc1OC: no (0)
- CC(=O)N1c2ccccc2NC2=C(C(=O)N(C)C2(C)C)C1C (stereo not given): no (0)
- CC(=O)NCCCS(=O)(=O)O: no (0)
- C(=N\Nc1ncc(-c2cc3cc4c(cc3o2)OCO4)s1)/c1c[nH]c2ccccc12: yes (1)
- Cc1ccc2[nH]c(=S)n(-c3ccc(S(=O)(=O)Nc4ccc(Cl)nn4)cc3)c(=O)c2c1: no (0)
- COc1ccc(NS(=O)(=O)c2ccc(C)cc2)c([N+](=O)[O-])c1: no (0)
- CCOc1ccc(/C=N/Nc2cc(C)nc3ccc(Cl)cc23)cc1: yes (1)
